Reported percentage of EdU-negative values are given for each entry in this list.
System: MCF7;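 also: secreted proteins added to cultured cells, EdU pulse at the end, nuclei found by Hoechst imaging, EdU status from nuclear versus surrounding ring intensity ratio, PBS as neutral control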
test-method-notes: percentage of EdU-negative (G0-arrested) nuclei per well, 72 h; higher = more G0 arrest
assay-setup: protein concentration 0.225 µM; reference: sequence is the full UniProt precursor, the tested protein was the secreted form or ectodomain

sequence: MAKSFPVFSLLSFILIHLVLSSVSGPRHWWPPRGIIKVKCPYEKVNLSWYNGTVNPCPGLYQPICGTNFITYDNPCILCVESLKSHGRIRFYHDGKC [Q6IE38]
subject-of-test: MCF7
quantity-unit: %
percentage of EdU-negative: 27

sequence: MMWPMHTPLLLLTALMVAVAGSASAQSRTLAGGIHATDLNDKSVQCALDFAISEYNKVINKDEYYSRPLQVMAAYQQIVGGVNYYFNVKFGRTTCTKSQPNLDNCPFNDQPKLKEEEFCSFQINEVPWEDKISILNYKCRKV
subject-of-test: MCF7
quantity-unit: %
percentage of EdU-negative: 25.3

sequence: MKALGAVLLALLLFGRPGRGQTQQEEEEEDEDHGPDDYDEEDEDEVEEEETNRLPGGRSRVLLRCYTCKSLPRDERCNLTQNCSHGQTCTTLIAHGNTESGLLTTHSTWCTDSCQPITKTVEGTQVTMTCCQSSLCNVPPWQSSRVQDPTGKGAGGPRGSSETVGAALLLNLLAGLGAMGARRP [Q8IV16]
subject-of-test: MCF7
quantity-unit: %
percentage of EdU-negative: 24.9

sequence: MQAPGRGPLGLRLMMPGRRGALREPGGCGSCLGVALALLLLLLPACCPVRAQNDTEPIVLEGKCLVVCDSSPSADGAVTSSLGISVRSGSAKVAFSATRSTNHEPSEMSNRTMTIYFDQVLVNIGNHFDLASSIFVAPRKGIYSFSFHVVKVYNRQTIQVSLMQNGYPVISAFAGDQDVTREAASNGVLLLMEREDKVHLKLERGNLMGGWKYSTFSGFLVFPL [Q8IUK8]
subject-of-test: MCF7
quantity-unit: %
percentage of EdU-negative: 26.8
